- Test system: STK33
- condition_context: concentration: 1 μM,replicates: in singlicate; n = 1;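 note: KINOMEscan kinase panel screen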
%Inh reference
Express your answer in %, writing the number without its unit.

For reference, reported %Inh for O=C(Nc1ccccc1)c1cccc(Oc2ccc3nccn3n2)c1 stands at 12

###

- System: ERK3
- Construct: gene MAPK6
- condition_context: concentration: 1 μM,replicates: in singlicate; n = 1
endpoint_name: %Inh (%)
Express your answer in %, writing the number without its unit.

> print(dat)
                        structure.as.smiles  endpoint.name  value.measured
1  Cn1ccc2ncnc(Oc3ccc(NC(=O)Nc4cncc(C(F)(F)F)c4)c(Cl)c3)c21           %Inh               0
2  C[C@@H](Oc1cc(-n2cnc3cc(-c4ccncc4)ccc32)sc1C(N)=O)c1ccccc1Cl           %Inh               0
3  CCn1c(-c2nonc2N)nc2cncc(CNC3CCNCC3)c21.Cl           %Inh               6

Cc1cccc(-c2nc(Nc3ccncc3)c3sccc3n2)n1 on ERK3 gives %Inh = 3

COC(=O)c1cccc(NC(=O)NC2CCN(c3ccnc(NCc4ccc(F)cc4)n3)CC2)c1 on ERK3 gives %Inh = 14

CC(C)S(=O)(=O)N1CCN(Cc2ccc3c(c2)nc(NC(=O)c2ccsc2)n3C[C@H](O)c2ccccc2)CC1 on ERK3 gives %Inh = 1

CCCC(=O)Nc1n[nH]c2ncccc12 on ERK3 gives %Inh = 0

CCOC(=O)N1CCC(n2cnc(-c3ccc(F)cc3)c2-c2ccnc(N)n2)CC1 on ERK3 gives %Inh = 0

CN(c1ccc2c(c1)nc(NCc1ccc(F)cc1)n2C)c1ccnc(Nc2ccc(CS(C)(=O)=O)cc2)n1.Cl on ERK3 gives %Inh = 0

FC(F)(F)c1cc(Br)cc(Nc2nccc(-c3cnn4ncccc34)n2)c1 on ERK3 gives %Inh = 16

Cl.Nc1n[nH]c2cc(-c3ccccn3)ccc12 on ERK3 gives %Inh = 0

CN(c1cccc(CNc2nc(Nc3ccc4c(c3)CC(=O)N4)ncc2C(F)(F)F)c1)S(C)(=O)=O on ERK3 gives %Inh = 0

Cc1ccc2c(-c3ccnc(Nc4ccc(C(F)(F)F)cc4)n3)cnn2n1 on ERK3 gives %Inh = 22

Cl.Cl.NC[C@H](CC1CCCCC1)NC(=O)c1ccc(-c2ccnc3[nH]ccc23)s1 on ERK3 gives %Inh = 0

O=C(NOCC1CC1)c1cc(Br)c(F)c(F)c1Nc1ccc(I)cc1Cl on ERK3 gives %Inh = 0

Cc1n[nH]c2cc(Nc3ccnc(Nc4cccc(CN5CCOCC5)c4)n3)ccc12 on ERK3 gives %Inh = 0

NC(=O)c1ccc(-c2cc3ncnc(SCC(=O)O)c3s2)cc1 on ERK3 gives %Inh = 0

C[C@@H]1CNc2c(sc3ccc4nc(-c5ccc(O)cc5)ccc4c23)C(=O)N1 on ERK3 gives %Inh = 0

COC(=O)Nc1nc2cc(Oc3ccc(NC(=O)Nc4cc(C(F)(F)F)ccc4Cl)cc3)ccc2[nH]1.Cl on ERK3 gives %Inh = 6
